Consider the following molecules and their measured Kd readings.
target: GDP-bound KRAS wild-type protein (Homo sapiens, UniProt P01116); experiment: Binding to KRAS by surface plasmon resonance (SPR), Single Cycle Kinetics; conditions: SPR Single Cycle Kinetics, GDP-bound KRAS wild-type protein, 1:1 binding model; read-out: KRAS KD
Sequence (P01116 whole entry): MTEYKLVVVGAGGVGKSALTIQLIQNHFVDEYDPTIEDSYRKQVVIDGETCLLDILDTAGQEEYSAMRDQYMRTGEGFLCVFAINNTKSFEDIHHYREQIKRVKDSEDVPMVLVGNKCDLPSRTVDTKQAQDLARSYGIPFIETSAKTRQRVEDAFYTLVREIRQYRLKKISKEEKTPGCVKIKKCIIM
*1 amine or outer side, *2 acyl side, *3 side chain or, on linkers, in order; H or OH if unused. Where a SMILES comes first, the peptide text is derived from it. Bridges are numbered along the chain shown (N, C = ends). [ ]: non-standard residue; d: D form. The star is where a group is joined. hPhe(3,5-F2-4-CF3) = N[C@@H](CCc1cc(F)c(C(F)(F)F)c(F)c1)C(=O)O; hPhe(3-Cl-4-CF3) = N[C@@H](CCc1ccc(C(F)(F)F)c(Cl)c1)C(=O)O; NPrPhe(4-CF3) = CCCN[C@@H](Cc1ccc(C(F)(F)F)cc1)C(=O)O; NMeGly(cPent) = CN[C@H](C(=O)O)C1CCCC1; Pro(4S-Me) = C[C@@H]1CN[C@H](C(=O)O)C1; X11 = CCC[C@](C)(N[*:1])C(=O)[*:2]; Hyp = O=C(O)[C@@H]1C[C@@H](O)CN1; NMeD = CN[C@@H](CC(=O)O)C(=O)O; NMeL = CN[C@@H](CC(C)C)C(=O)O; Morpholide = C1CN(*)CCO1; Ac5c = NC1(C(=O)O)CCCC1; Ac4c = NC1(C(=O)O)CCC1; NEtG = CCNCC(=O)O; Sar = CNCC(=O)O
measured_metric: Kd (nM)

CC[C@H](C)[C@@H]1NC(=O)[C@H](CC(C)C)N(C)C(=O)C[C@@H](C(=O)N2CCOCC2)N(CC)C(=O)[C@H](C2CCCC2)N(C)C(=O)C2(CCCC2)NC(=O)[C@@H]2CCCN2C(=O)[C@H](CCc2cc(F)c(C(F)(F)F)c(F)c2)NC(=O)CN(C)C(=O)[C@H](Cc2ccc(C(F)(F)F)cc2)N2CCCC[C@@H](C2=O)N(C)C(=O)CN(C)C1=O [PP0539]; 0.17
CCC(CC)[C@H]1C(=O)N(C)[C@H](C(=O)N(C)C)CC(=O)N(C)[C@@H](COC)C(=O)N[C@@H]([C@@H](C)CC)C(=O)N2CCC[C@H]2C(=O)N(C)[C@H]2C/C=C\CCN(C2=O)[C@@H](Cc2ccc(C(F)(F)F)cc2)C(=O)N(C)CC(=O)N[C@@H](CCc2ccc(Cl)c(Cl)c2)C(=O)N2C[C@H](OC3CCCC3)C[C@H]2C(=O)NC2(CC(C)(C)C2)C(=O)N1C [PP2651]; 1.9
CCCN1C(=O)CN(C)C(=O)CN(CC)C(=O)[C@H]([C@@H](C)CC)NC(=O)[C@H](CC(C)C)N(C)C(=O)C[C@@H](C(=O)N2CCOCC2)N(C)C(=O)[C@H](C2CCCC2)N(C)C(=O)C2(CCCC2)NC(=O)[C@@H]2C[C@H](C)CN2C(=O)[C@H](CCc2ccc(C(F)(F)F)c(Cl)c2)NC(=O)CN(C)C(=O)[C@@H]1Cc1ccc(C(F)(F)F)cc1 [PP0451] ([NMeL]I[NEtG][Sar][NPrPhe(4-CF3)][Sar][hPhe(3-Cl-4-CF3)][Pro(4S-Me)][Ac5c][NMeGly(cPent)][NMeD]-Morpholide; lactam N-11); 0.75
CCCN1C(=O)CN(C)C(=O)CN(C)C(=O)[C@H]([C@@H](C)CC)NC(=O)[C@H](CC(C)C)N(C)C(=O)C[C@@H](C(=O)N2CCOCC2)N(C)C(=O)[C@H](C2CCCC2)N(C)C(=O)[C@](C)(CCC)NC(=O)[C@@H]2CCCN2C(=O)[C@H](CCc2cc(F)c(C(F)(F)F)c(F)c2)NC(=O)CN(C)C(=O)[C@@H]1Cc1ccc(C(F)(F)F)cc1 [PP0758] ([NMeL]I[Sar][Sar][NPrPhe(4-CF3)][Sar][hPhe(3,5-F2-4-CF3)]P[X11][NMeGly(cPent)][NMeD]-Morpholide; lactam N-11); 1.6
CCCN1C(=O)CN(C)C(=O)CN(C)C(=O)[C@H]([C@@H](C)CC)NC(=O)[C@H](CC(C)C)N(C)C(=O)C[C@@H](C(=O)N2CCOCC2)NC(=O)[C@H](C2CCCC2)N(C)C(=O)C2(CCC2)NC(=O)[C@@H]2C[C@@H](OCC)CN2C(=O)[C@H](CCc2ccc(C(F)(F)F)c(Cl)c2)NC(=O)CN(C)C(=O)[C@@H]1Cc1ccc(C(F)(F)F)cc1 [PP0324] ([NMeL]I[Sar][Sar][NPrPhe(4-CF3)][Sar][hPhe(3-Cl-4-CF3)][Hyp](Et)[Ac4c][NMeGly(cPent)]D-Morpholide; lactam N-11); 0.41
